target: human norepinephrine transporter (Homo sapiens); construct: host or cells: HEK-293; assay: hNET receptor binding ([125I]-RTI-55 radioligand binding); details: membranes of HEK-293 cells transfected with human norepinephrine transporter, IC50 converted to Ki by Cheng-Prusoff, read-out: hNET (Ki)
Sequence (P23975 whole entry): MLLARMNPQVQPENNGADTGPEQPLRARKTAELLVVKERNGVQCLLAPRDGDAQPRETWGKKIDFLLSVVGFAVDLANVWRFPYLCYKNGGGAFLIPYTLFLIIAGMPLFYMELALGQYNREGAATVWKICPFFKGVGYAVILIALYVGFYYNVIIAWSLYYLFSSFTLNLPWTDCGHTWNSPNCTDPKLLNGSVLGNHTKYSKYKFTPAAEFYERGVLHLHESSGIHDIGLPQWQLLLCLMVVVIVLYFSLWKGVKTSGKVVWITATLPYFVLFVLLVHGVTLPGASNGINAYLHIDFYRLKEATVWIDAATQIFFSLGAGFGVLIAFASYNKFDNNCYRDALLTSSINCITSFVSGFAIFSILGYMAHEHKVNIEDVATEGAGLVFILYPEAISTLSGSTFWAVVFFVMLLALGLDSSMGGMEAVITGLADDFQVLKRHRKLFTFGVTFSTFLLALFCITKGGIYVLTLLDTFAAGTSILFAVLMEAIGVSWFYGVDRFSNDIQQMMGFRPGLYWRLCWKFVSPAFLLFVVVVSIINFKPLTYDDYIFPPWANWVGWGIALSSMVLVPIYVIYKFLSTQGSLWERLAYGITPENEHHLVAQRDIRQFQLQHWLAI
READOUT TYPE: Ki

Take a look at these entries with their results.
{"columns": ["MOLECULE", "Ki"],
 "data": [
  ["Fc1cccc(F)c1OC(c1nccs1)[C@@H]1CNCCO1 (stereo partly drawn)", "15 nM"],
  ["CCOc1ccc(F)cc1OC(c1ccccc1)[C@@H]1CNCCO1 (stereo partly drawn)", "6 nM"],
  ["c1ccc([C@H](Oc2ccccc2-c2ccncc2)[C@@H]2CNCCO2)cc1", "689 nM"]
]}

Ask | # return recorded Ki for entry COc1cccc(OC)c1OC(c1ccccc1)[C@@H]1CNCCO1 (stereo partly drawn)
Reply | 69 nM

Ask | # return recorded Ki for entry CCOc1c(F)cccc1OC(c1ccccc1)[C@@H]1CNCCO1 (stereo partly drawn)
Reply | 11 nM

Ask | # return recorded Ki for entry Cc1cccc(F)c1O[C@@H](c1ccccc1)[C@@H]1CNCCO1
Reply | 3 nM

Ask | # return recorded Ki for entry c1ccc(-c2ccccc2O[C@@H](c2ccccn2)[C@@H]2CNCCO2)cc1
Reply | 14 nM
